value type: melting point

[
  {
    "compound": "Cc1ccc(C(=O)C2=C(O)C(=O)N(c3nc(N4CCOCC4)c4nc[nH]c4n3)C2c2ccccc2F)o1 (stereo not shown) [Compound 285]",
    "value type": "melting point",
    "result value": "297 to 299 °C"
  },
  {
    "compound": "Cc1ccc(C(=O)C2=C(O)C(=O)N(c3nc4ccc(Cl)cc4s3)C2c2ccc(C#N)cc2)o1 (stereo not shown) [Compound 620]",
    "value type": "melting point",
    "result value": "259 to 260 °C"
  },
  {
    "compound": "Cc1ccc(C(=O)C2=C(O)C(=O)N(c3nc4cccnc4s3)C2c2ccc(O)c(C(=O)O)c2)o1 (stereo not shown) [Compound 248]",
    "value type": "melting point",
    "result value": "243 to 245 °C"
  },
  {
    "compound": "O=C(COc1ccccc1)C1=C(O)C(=O)N(c2nc3c(Cl)cccc3s2)C1c1ccc(F)cc1 (stereo not shown) [Compound 450]",
    "value type": "melting point",
    "result value": "204 to 206 °C"
  },
  {
    "compound": "COCCOc1ccc(CCC(=O)C2=C(O)C(=O)N(c3nc4ccc(Cl)cc4s3)C2c2ccccc2F)cc1 (stereo not shown) [Compound 575]",
    "value type": "melting point",
    "result value": "219 to 220 °C"
  },
  {
    "compound": "O=C(C1=C(O)C(=O)N(c2nc3ccc(Cl)cc3s2)C1c1ccccc1F)C1CCC1 (stereo not shown) [Compound 571]",
    "value type": "melting point",
    "result value": "262 to 263 °C"
  },
  {
    "compound": "COc1cc(C2C(C(=O)c3ccc(C)o3)=C(O)C(=O)N2c2nc3c(Cl)cccc3s2)cc(OC)c1OC (stereo not shown) [Compound 607]",
    "value type": "melting point",
    "result value": "251 to 252 °C"
  }
]

----------
[
  {
    "compound": "CC(=O)c1sc(N2C(=O)C(O)=C(C(=O)c3cc4ccccc4o3)C2c2ccc(OCc3ccccc3)cc2)nc1C (stereo not shown)",
    "melting point": "195 to 197 °C"
  },
  {
    "compound": "CC(=O)NC(CC(C)C)C(=O)C1=C(O)C(=O)N(c2nc3ccc(F)cc3s2)C1c1ccc(Cl)cc1 (stereo not shown)",
    "melting point": "266 to 269 °C"
  },
  {
    "compound": "O=C(C1=C(O)C(=O)N(c2nc3c(Cl)cccc3s2)C1c1ccccc1F)c1nccs1 (stereo not shown)",
    "melting point": "320 to 321 °C"
  },
  {
    "compound": "O=C(C1=C(O)C(=O)N(c2nc3c(Cl)cccc3s2)C1c1ccc(F)cc1)c1nccs1 (stereo not shown)",
    "melting point": "303 to 304 °C"
  }
]
